# DC50 per entry
# ASSAY_TARGET: TYK2 (Homo sapiens)
# Construct: Degradation of TYK2 in cells was quantitatively measured using Meso Scale Discovery (MSD) technology; endogenous in cells; host or cells: OCI-LY10
# Sequence (P29597 whole entry): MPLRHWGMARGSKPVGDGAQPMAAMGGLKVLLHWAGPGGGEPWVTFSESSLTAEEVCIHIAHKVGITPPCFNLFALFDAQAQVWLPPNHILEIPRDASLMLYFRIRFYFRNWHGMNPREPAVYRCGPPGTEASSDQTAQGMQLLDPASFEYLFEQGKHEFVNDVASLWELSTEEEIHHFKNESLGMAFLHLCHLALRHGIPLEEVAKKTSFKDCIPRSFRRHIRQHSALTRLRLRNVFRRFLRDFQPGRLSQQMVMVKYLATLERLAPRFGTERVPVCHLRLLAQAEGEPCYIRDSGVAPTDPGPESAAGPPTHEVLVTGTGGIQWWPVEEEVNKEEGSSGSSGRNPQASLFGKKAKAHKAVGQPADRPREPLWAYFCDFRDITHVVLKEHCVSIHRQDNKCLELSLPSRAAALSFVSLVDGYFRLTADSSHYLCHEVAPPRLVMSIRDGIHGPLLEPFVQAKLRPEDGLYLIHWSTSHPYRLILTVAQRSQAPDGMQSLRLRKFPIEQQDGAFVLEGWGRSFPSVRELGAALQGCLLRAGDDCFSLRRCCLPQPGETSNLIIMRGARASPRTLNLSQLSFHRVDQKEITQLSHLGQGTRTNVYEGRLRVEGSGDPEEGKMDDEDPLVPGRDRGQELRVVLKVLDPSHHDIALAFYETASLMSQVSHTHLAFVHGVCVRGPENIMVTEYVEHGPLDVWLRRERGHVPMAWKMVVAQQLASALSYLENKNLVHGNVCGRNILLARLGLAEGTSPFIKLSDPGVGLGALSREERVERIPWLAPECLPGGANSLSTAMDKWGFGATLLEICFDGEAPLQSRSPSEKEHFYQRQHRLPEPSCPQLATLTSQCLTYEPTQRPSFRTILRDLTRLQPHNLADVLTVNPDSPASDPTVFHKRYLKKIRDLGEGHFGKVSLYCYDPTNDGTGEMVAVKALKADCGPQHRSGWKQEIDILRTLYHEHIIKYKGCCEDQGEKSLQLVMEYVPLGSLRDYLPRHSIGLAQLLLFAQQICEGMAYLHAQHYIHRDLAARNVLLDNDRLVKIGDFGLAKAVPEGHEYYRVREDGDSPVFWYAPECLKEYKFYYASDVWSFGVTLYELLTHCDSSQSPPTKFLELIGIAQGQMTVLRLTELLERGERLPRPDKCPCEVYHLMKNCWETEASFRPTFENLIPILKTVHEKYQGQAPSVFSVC
# ASSAY_METHOD_TEXT: TYK2 MSD degradation in OCI-LY10 cells
# Format: cell-based
# RECORDED_CONDITIONS: OCI-LY10 cells, 4 to 24 hours incubation, read-out: TYK2 MSD OCI-LY10 Rel-DC50
OBSERVED_PROPERTY: DC50

{"COMPOUND": "CNc1cc(N2CCc3c2ccc(F)c3-c2ccc(CN3CCC4(CCN(C(=O)c5cc(C)c(Cl)c(N6CCC(=O)NC6=O)c5)CC4)C(F)(F)C3)cn2)nn2c(C(=O)N[C@@H]3C[C@@H]3F)cnc12", "OBSERVED_PROPERTY": "DC50", "READING": "10 to 100 nM"}
{"COMPOUND": "CNc1cc(N2CCc3c(CN4CCC(CN5CCN(C(=O)c6ccc(Cl)c(N7CCC(=O)NC7=O)c6)CC5)C(F)(F)C4)cccc32)nn2c(C(=O)N[C@@H]3C[C@@H]3F)cnc12 (stereo partly shown)", "OBSERVED_PROPERTY": "DC50", "READING": "< 10 nM"}
{"COMPOUND": "CNc1cc(N2CCc3c(CN4CCC(N5CCN(Cc6ccc(Cl)c(C7CCC(=O)NC7=O)c6)CC5)C(F)(F)C4)cccc32)nn2c(C(=O)NC3CC3F)cnc12 (stereo not shown)", "OBSERVED_PROPERTY": "DC50", "READING": "> 100 nM"}
{"COMPOUND": "CNc1cc(N2CCc3c(-c4ccc(CN5CCC6(CC5)CC(COc5ccc(Cl)c(C7CCC(=O)NC7=O)c5)C6)cn4)cccc32)nn2c(C(=O)N[C@@H]3C[C@@H]3F)cnc12 (stereo partly shown)", "OBSERVED_PROPERTY": "DC50", "READING": "< 10 nM"}
{"COMPOUND": "CNc1cc(N2CCc3c(-c4ccc(CN5CC6(CCN(Cc7ccc(OC)c(C8CCC(=O)NC8=O)c7)CC6(F)F)C5)cn4)cccc32)nn2c(C(=O)N[C@@H]3C[C@@H]3F)cnc12 (stereo partly shown)", "OBSERVED_PROPERTY": "DC50", "READING": "< 10 nM"}
{"COMPOUND": "CNc1cc(N2CCc3c(-c4ncc(CN5CCC6(CCN(C(=O)c7cc(C)c(Cl)c(N8CCC(=O)NC8=O)c7)CC6)C(F)(F)C5)cc4C)cccc32)nn2c(C(=O)N[C@@H]3C[C@@H]3F)cnc12", "OBSERVED_PROPERTY": "DC50", "READING": "< 10 nM"}
{"COMPOUND": "CNc1cc(-c2cn(C3CN(C4CCN(C(=O)c5ccc(Cl)c(N6CCC(=O)NC6=O)c5)CC4)C3)c3ccccc23)nn2c(C(=O)N[C@@H]3C[C@@H]3F)cnc12", "OBSERVED_PROPERTY": "DC50", "READING": "> 100 nM"}
{"COMPOUND": "CNc1cc(N2CCc3c(-c4cnc(CN5CC6(CCN(C(=O)c7ccc(Cl)c(N8CCC(=O)NC8=O)c7)CC6)C5)cn4)cccc32)nn2c(C(=O)N[C@@H]3C[C@@H]3F)cnc12", "OBSERVED_PROPERTY": "DC50", "READING": "< 1 nM"}
{"COMPOUND": "CNc1cc(N2CCc3c(CN4CCC(N5CCC6(CCN(C(=O)c7cc(C)c(OC)c(N8CCC(=O)NC8=O)c7)CC6)CC5)C(F)(F)C4)cccc32)nn2c(C(=O)N[C@@H]3C[C@@H]3F)cnc12 (stereo partly shown)", "OBSERVED_PROPERTY": "DC50", "READING": "< 10 nM"}
{"COMPOUND": "CNc1cc(N2CCc3c(-c4ncc(CN5CCC6(CCN(C(=O)c7cc(C)c(Cl)c(N8CCC(=O)NC8=O)c7)CC6)C(F)(F)C5)cc4Cl)cccc32)nn2c(C(=O)N[C@@H]3C[C@@H]3F)cnc12", "OBSERVED_PROPERTY": "DC50", "READING": "< 10 nM"}
